Listed next: entries and their corresponding mM Fructosamine/mg protein (Mean ± SE).
system: skin collagen; assay: Glycosylation of diabetic rat skin collagen (Example V, Table IV); type: in vivo, Sprague-Dawley rat; settings: 5 mg daily oral gavage, 21 days; NDC 0.027, untreated diabetic 0.377

Example entries and their recorded answers appear below.
{"COMPOUND": "CC1(O)c2c(Cl)ccc(O)c2C(=O)C2=C(O)C3(O)C(=O)C(C(N)=O)=C(O)CC3CC21 (stereo not drawn) [CMT-4, 7-chloro-4-dedimethylaminotetracycline]", "ASSAY_METRIC": "mM Fructosamine/mg protein (Mean ± SE)", "TEST_VALUE": "0.236 ± 0.026 mM Fructosamine/mg protein"}
{"COMPOUND": "CC1(O)c2cccc(O)c2C(=O)C2=C(O)C3(O)C(=O)C(C(N)=O)=C(O)CC3CC21 (stereo not drawn) [CMT-1, 4-dedimethylaminotetracycline]", "ASSAY_METRIC": "mM Fructosamine/mg protein (Mean ± SE)", "TEST_VALUE": "0.123 ± 0.011 mM Fructosamine/mg protein"}

Please examine the following record next.
## Task Identify the measured mM Fructosamine/mg protein (Mean ± SE) of C[C@H]1c2cccc(O)c2C(O)=C2C(=O)[C@]3(O)C(O)=C(C(N)=O)C(=O)[C@@H](N(C)C)[C@@H]3[C@@H](O)[C@@H]21 [Doxycycline, reference compound] for skin collagen.
## Result 0.244 ± 0.050 mM Fructosamine/mg protein
